Origin of the recorded values: ChEMBL document CHEMBL4340556

system: Mus musculus; experiment: Anticonvulsant activity in ip dosed albino mouse model of maximal electroshock-induced seizures assessed as prevention of tonic hind limb extension pretreated for 4 hrs followed by 50 mA current-induction for 0.25 secs; format: functional
The source made the active and inactive calls. The rule behind the calls is not given here.
property name: MED=>50

Illustrative cases are given below, each with its answer.
- O=C(Nc1nc2ccc(Cl)cc2s1)NN1C(=O)CSC1c1ccccc1Cl (stereo not drawn): 100 mg/kg
- NC(=O)N1c2ccccc2C=Cc2ccccc21 [CARBAMAZEPINE]: 100 mg/kg
- O=C(Nc1nc2ccc(Cl)cc2s1)NN1C(=O)C(Cl)C1c1ccccc1 (stereo not drawn): 300 mg/kg
- O=C(Nc1nc2ccc(Cl)cc2s1)NN1C(=O)CSC1c1ccccc1 (stereo not drawn): 300 mg/kg
- CCC1(C)CC(=O)NC1=O (stereo not drawn) [ETHOSUXIMIDE]: inactive
- COc1ccc(C2C(Cl)C(=O)N2NC(=O)Nc2nc3ccc(Cl)cc3s2)cc1 (stereo not drawn): 300 mg/kg
- CCCC(CCC)C(=O)O [VALPROIC ACID]: inactive
- O=C(Nc1nc2ccc(Cl)cc2s1)NN1C(=O)C(Cl)C1c1ccc([N+](=O)[O-])cc1 (stereo not drawn): 100 mg/kg

// query Enter measured MED=>50, system Mus musculus, for the compound shown: O=C1NC(=O)C(c2ccccc2)(c2ccccc2)N1 [PHENYTOIN]
// result 30 mg/kg

// query Write down measured MED=>50 (Mus musculus) for this compound. Cc1ccccc1C1SCC(=O)N1NC(=O)Nc1nc2ccc(Cl)cc2s1 (stereo not drawn)
// result 300 mg/kg

// query Specify the recorded MED=>50 for O=C(Nc1nc2ccc(Cl)cc2s1)NN1C(=O)C(Cl)C1c1ccccc1Cl (stereo not drawn) , system: Mus musculus.
// result 300 mg/kg

====

system: Mus musculus; assay: Anticonvulsant activity in ip dosed albino mouse model of maximal electroshock-induced seizures assessed as prevention of tonic hind limb extension pretreated for 4 hrs followed by 50 mA current-induction for 0.25 secs; type: functional
property name: MED=>50

* O=C(Nc1nc2ccc(Cl)cc2s1)NN1C(=O)CSC1c1ccc([N+](=O)[O-])cc1 (configuration not stated) | 100 mg/kg
* CC(=O)Oc1ccccc1C1SCC(=O)N1NC(=O)Nc1nc2ccc(Cl)cc2s1 (configuration not stated) | 300 mg/kg
* O=C(Nc1nc2ccc(Cl)cc2s1)NN1C(=O)C(Cl)C1c1ccc(Cl)cc1Cl (configuration not stated) | 100 mg/kg
* O=C(Nc1nc2ccc(Cl)cc2s1)NN1C(=O)CSC1c1ccc(Cl)cc1Cl (configuration not stated) | 100 mg/kg
* CC(=O)Oc1ccccc1C1C(Cl)C(=O)N1NC(=O)Nc1nc2ccc(Cl)cc2s1 (configuration not stated) | 300 mg/kg

Here is another compound to look at.
// query Please tell me the measured MED=>50 for Cc1ccccc1C1C(Cl)C(=O)N1NC(=O)Nc1nc2ccc(Cl)cc2s1 (configuration not stated) ; system: Mus musculus.
// result 300 mg/kg
